Test system: MS2 coat protein
Experiment: apparent KD of MS2 coat protein; designed switch direction (-1 OFF switch, 1 ON switch): 1; higher = weaker reporter binding
Details: input ligand: microRNA oligo, concentration not stated
Catalogue of apparent KD of MS2 coat protein values
Write down the numeric answer in nM and omit the unit.

sequence record	apparent KD of MS2 coat protein / nM
ACAUGAGAGAUAGGAUAUGUUGUACCUACAUGUGACAUGAGGAUCACCCAUGUGGUAAGUAUGAGGCAGAAGGAUCAGAUAUGU [Equivalence 41 - Jieux - Same State NG 2] (Eterna round: R96, puzzle: Same State NG 2)	68.1

# context switch: different sequence, same apparent KD of MS2 coat protein
Input: State its apparent KD of MS2 coat protein: GGAGCCGGCCUAGGAUAUUUCAUUAAAAUACAUGAGGAUCACCCAUGUAGGCCAGAAGGCCUUGGGAAGAAGGAGGUCGGCUCC [Loop Effect - U24,U29] (Eterna round: R96, puzzle: Same State NG 2)
Output: 17.6

###

Test system: MS2 coat protein
Assay: apparent KD of MS2 coat protein; designed switch direction (-1 OFF switch, 1 ON switch): -1; higher = weaker reporter binding
Conditions: input ligand: none
endpoint label: apparent KD of MS2 coat protein (nM)
// return numeric value only (unit: nM, not printed)

Solved entries:
sequence record	value unit	apparent KD of MS2 coat protein
ACAUGACCGCUAGGAUAUAGAUGACAUGAGGAUCACCCAUGUUGUCCCAUGUUGACGAUCACCGACUAGAAGGAGCCACCCAUG [ExNG2 5th] (Eterna round: R96, puzzle: Exclusion NG 2)	nM	52.5
GGUGGACAUGAGGAUCACCCAUGUGAGGAUAUCGGCUGGCUAGCGGCGGACGGCUUCUCGAGAAGGCGCAUUGU [Exclusion 1 V83] (Eterna round: R96, puzzle: Exclusion 1)	nM	64.5
AAACCCAGAGGAUAUGCUGACUCCGACAUGAGGAUCACCCAUGUAGCGACUCUUCAUGCAGCAGAAGGUUGAUUUU [Eternabot (L1) Solution 66] (Eterna round: R97, puzzle: Exclusion 5)	nM	271

Input: Name the recorded apparent KD of MS2 coat protein of the item CAUAGUUACUCAGGAUAUAGUACAUGAGGAUCACCCAUGUAAUAAAUGAGAAUUUCGAAUGUAUACUAGAAGGGAGAAAUCUAC [Ostracism 55 - Jieux - Exclusion NG 2] (Eterna round: R96, puzzle: Exclusion NG 2) in your answer.
Output: 46.1

Input: Retrieve apparent KD of MS2 coat protein measured for UAUUAGCAAGUAAGAUCCCACAUGAGGAUCACCCAUGUGCUCGUCAUAUAACGUACUGUGAGGAAACUCACGGUACG [Sensor-V1 #84] (Eterna round: R97, puzzle: Sensor, turn-off variant 1) and print it.
Output: 103

Input: Tell me its apparent KD of MS2 coat protein given AAGAAGAAGUAAGGAUAUGAAGAUCUGGUGGUGACAUGAGGAUCACCCAUGUGAAAACGAUGAGAUCAGAAGGUAUAAGAAGAA [AK ExNG2-3.3] (Eterna round: R96, puzzle: Exclusion NG 2) as the entry.
Output: 89.4

Input: Give apparent KD of MS2 coat protein for the following sequence: CAAGCAGAAUAAAGGUCCGACAUGAGGAUCACCCAUGUUCGUCGGGAUAUGCUUCCUUUACGAGGGAGCACCAGAAA [Eternabot (L2) Solution 25] (Eterna round: R97, puzzle: Sensor, turn-off variant 1)
Output: 38.2
